Assay: soluble on expression in E. coli; label from the status in PepcDB or PDB records
quantity-name: soluble on expression in E. coli

{"chain": "GPGSMITDSHIMRLVTDGRMEMFPAVPPPSADGNGVVMLSCYQRGPLLPPTPPRPSSGRNDRIMWDSWQTRPVPQYRGNPETKTQRGVADWQHVPFACPFLRPVVTDVDRAVRGGNATRWLPTPFVGPQVFTVKDKSAGGVLVEQKEAPSSSTS", "soluble on expression in E. coli": "not soluble"}
{"chain": "MSLKRRQTNIIGVYLADYGGSFYGELLEGIKKGLALFDYEMIVCSGKKSHLFIPEKMVDGAIILDWTFPTKEIEKFAERGHSIVVLDRTTEHRNIRQVLLDNRGGATQAIEQFVNVGSKKVLLLSGPEKGYDSQERLAVSTRELTRFGIPYEIIQGDFTEPSGYAAAKKILSQPQTEPVDVFAFNDEMAIGVYKYVAETNYQMGKDIRIIGFDNSELGAFVQPRLATIAYSKHRWGMVAAEKIIHLMRGEAAESEHIYTRFIEGESFPSEGHHHHHH", "soluble on expression in E. coli": "soluble"}
{"chain": "MGSDKIHHHHHHMKTGRNDPCPCGSAKKYKNCCMDAISKQNSALLDDISQVTAMNPNLTHDELDLVLQQKAFAQNNRPIADFCGLSPAQMANWLYAPFNELNCVAISPPDDLSSSPVMRYLEVILDEAMAQNGSFKATSKGNLPTKLVKQASGLLPEFAVAQFSTNISISEYAGSNEDKFNALHYTRILAELSGIIYRKSGSYHVKKAAQKQYQSQGLTAFFLPMLEAAITKYNWGYLDSWEHDAVLSTFWLFMLWRLQSHASVDELIDEVATAFPDLLHQFPADKYRTPQAQLGMGIDSRFLKRFLQFWGFITLDPKRLFAEPREPRKVQIQPLLTQTFKFTI", "soluble on expression in E. coli": "not soluble"}
{"chain": "MGSDKIHHHHHHMYTLNILKDSTAVMYEKMTFPAFQYVLQEINSKESLIAIAASYQEEPVGLVLAEIRTYNQSAEVLSLFVEPSHRCAGIGTNLLNRLETELTYRRCKKVELVYMTGKSTTPALENLLHKCGWTSPQPRMLVCKGEMEKGIQAPWLKQYSQLPAAYTIFPWREITTQERQAIERQQATQPWIPEDLIPFKYDKQIEPLNSLGLRYQGQVVGWLISHRIFPDTIRYTCAFCRPDIQKKGRMITLFYEAAKLQLNAKIPHFIWTTPMNHQSMVAFVKYRCLPYLTSIQETRIISKLLLG", "soluble on expression in E. coli": "not soluble"}
{"chain": "MLSTIRYYYEHSLIEEKTKHQELSWQTPISRSLVTHDPSTGGIQLSKKNAMLNDAVTTTTTVEVFRAPTNTDMISLTPASNGGPPLLVRTNGPQYEQWNDRRVQTMMVDDDRRDLAKGVQWKERLIEESDRRYRDNGSDFYDEITEPTQFIHHDYRPKPLGFQTITHPIIMTGSRDDLRSQPPQYPAPLSPLYIVPDRHRNIANSVSPGQYSRRSNGYEDRRKDTEELRDERKRENEQNQNRERYHHRRSKSSNRDDASVSHRSLRHRSMSPASRRSFGTSLGGSQEFVIPAHSPIGSTLMLASPDPNELPGRPASAKSQEIFALYQTRDAYNRIVDQL", "soluble on expression in E. coli": "not soluble"}
{"chain": "MSCMGAAVNIITTDGPAGRAGFTASAVCSVTDTPPTLLVCLNRGASVWPVFNENRTLCVNTLSAGQEPLSNLFGGKTPMEHRFAAARWQTGVTGCPQLEEALVSFDCRISQVVSVGTHDILFCAIEAIHRHTTPYGLVWFDRSYHALMRPAC", "soluble on expression in E. coli": "not soluble"}

Enquiry: Tell us which soluble on expression in E. coli value is on record for MGSDKIHHHHHHMLSLKSEVLARHLPLFNGKSILLFGNVRDRFADQIRSISSHVAIFSHYFDYARHYNDVEFGLDCTTPANLGVFYWTKNKQECHYQLLQWLSQTAIGQQMLIIGENRAGVRSVEKLLSPFGQIAKIDSARRCGLYHFELQTIPQFDCQKFWKSYRLADLTVLSLPAAFSSTELDAGSQLLLSSFTNQDRLTGNVLDLGCGAGVIGAYLKQRFPAISLTMSDIHSMAIHSAQATLAKNKLTGTVIASDVFSHINDRFDLIVSNPPFHDDIDTAYHTVESLIMQAKNHLNYGGELRIVANAFLPYPDLLDKAFGSHQVVTKSNKFKVYSARV
Return: not soluble

Enquiry: Tell us which soluble on expression in E. coli value is on record for MEKIKYGFGEIEAAASDIQSTSGRINSLLEDLKAHIRPMAAAWEGESAQAYNEAQQQWDSSAAELNTILSTISNTVRQGNDRMSEVNRMAAASWS
Return: not soluble

Enquiry: Tell us which soluble on expression in E. coli value is on record for MGSDKIHHHHHHMSAGLTGIRVAVIGGDDREIYMIPELQKLGAYIVGVGFEKAAPIQGVTLLSSPLEAVEKADVLLFPMYGTDERGDVKAKYSETPIVLNKELLKAVSPKVPLFIGWARPALKSAAEMLGIQIVETANLDQLAILNSIPSAEGAIQMAMEASPITIHGSESFVLGLGRCGWTLARTLKGMGAHVTGVARKPADLARALEMGLEAVHFADLDEKIGKAELIFNTVPHLILDKVMLEQVNHEAVIIDIASLPGGTDFEYAKAKGIKAMLAPGLPGKVAPKAAGKILAQVYPQLILRHLTTKNASLKF
Return: not soluble

Enquiry: Tell us which soluble on expression in E. coli value is on record for MKVYVVVPTYNESDNIVALMEKILAQRDNIHVLVVDDNSPDGTGEIAARMSSDNPRIHVLRRSGKMGLGSAYCDGFRVALRDGADFIIEMDADFSHDPATIPALLAATDKYDVVVGSRYLNGVSVVNWPIRRLMLSYFASVYTRFVTGLALRDCTSGFKCFRRRVIESVDLDTIRSDGYSFQIEMNYRCVERGFRVGEIPIIFIDRHAGSSKMSKKIVREAVLMVWKLKLGSLVKKLTRRGDRHAALEHHHHHH
Return: soluble

Enquiry: Tell us which soluble on expression in E. coli value is on record for AAEKTGKCRVVTTTGTADWSVRESFNNYLEGPIANGAAYKYHGGIEVRDGVETTGTKSAREFTWPVLGSEEGAVKLGGGVHWTGHNHYSGDDESQAPDNFILDLDFSNPTVKFDGNEGTLLVDFKSREFVDTKTVADFLTGTQAELATITFDEPIDLTQENVTVTGQTKLTATGVDVMGTFYPEGEALAPITLNLTN
Return: not soluble
